Just for reference, the nanobody polyreactivity screen of Harvey et al. (2022) is where these values come from.

Assay: yeast display, Sf9 membrane polyspecificity reagent, FACS + sequencing; frameworks hold sequencing errors
PROPERTY: polyreactivity (PSR sort gate)

- QLQLVESGGGLVQAGGRLRLSCAASGITYFTYDMGWYRQAPGKERELVAAISGSGGSTYYADSVKGRFTISRDNAKNSFYLQMTSLKPEDTAVYYCAAEYTYGSPYDYWGQGTQVTVSS: low polyreactivity
- QVQLVESGGGLVQAGGSLRLSCAASGSIDRFYAMGWYRQAPRKERDLVAFITSTGRTYYADSVKGRFTISRDNAKNTVYLQMNSLKPEDTAVYYCAAGYPKRVAYLWFSQYDYWGKGTQVTVSS: low polyreactivity
- QVQLVESGGGLVQAGGSLRFSCAASGSTFQYYAMGWYRQAPGKEREFVAAIRSSGGTTYYADSVKGRFTLSRDNAKNTVYLQMNSLKPEDTAVYYCAATTKYNGRRSYFKFDYWGQGTQVTVSS: high polyreactivity
- QVQLVESGGGLVQAGGSLSLTCAASGRIFSYYAMGWYRQAPGKERELVAGISRGTSTYYADSVKGRFTISRDNAKNTVYLQMNSLKPEDTAVYYCAADYFSYYSPYRYGYWGQGTQVTVSS: high polyreactivity
- QVQLVESGGLIVQAGGSLRLSCAASRSTSRYSMGWYRQAPGKERELDAAITRSCGTTYYADSVKGRFTISRDNAKNSVYLQMNSLKPEDTAVYYCATSDRQVKDDYWGQGTQVTVSS: low polyreactivity

Kindly give each listed record's polyreactivity (PSR sort gate).
1. QVQLVESGGGLVQAGGSLRLSCAASGSTFGYYAMGWYRQAPGKEMELVAAITSGASTNYADSVKGRFTISRDNAKNTVYLQMNSLKPEDTAVYYCAADFLSPAYRPSWYRFDYWGQGTQVTVSS
2. QVQLVESGGGLVQAGGSLRLSCDASGIIFQYYAMGWYRHAPGKERELVAAISWSGGSTYYADSVKGRFTISRDNAKNTVYLQMNSLKPEDTAVYFCAARSRSFWPYEGDYWGQGTQVTLSS
3. QVQLVESGGGLVQAGGSLRLSCAASGIIFDCNAMGCYRQAPGKERELVAANTSSTDSTYYADSVKGRFTISRDNAKNTVYLQMNILKPEDTAVYYCAAAYPSKTFDYWGQGTHVTVSS
4. QVQLVESGGGLVQAGGSLRLSCAASGITIVLYAMGWYRQAPGQERQLVAAINIDGNTNYADSVKGRFTISRDNAKNTVYLQMNSLKPEDTAVYYCAATFVPAQSRYTGSKYDYWGQGTQVTVSS
5. QVQLVESGGGIVQAGGSLRLSCAASGRISAYNAMGWYRQAPGKERELVAAITYDGGSTYYADSVKGRFTISRDNAKNTVYLHMNSLKPEDTAVYYCNAGADSVSFRDGGITTYDYWGQGTQVTVSS
6. QVQLVESGGGLVKAGGSLRISCAASGSIFGPNGKGLYRQAPGKERELVSAISWNGGSTYYADSVKGRFTISRDNAKNTVYLQMNSLKPEDTAVYYCNAVQYYEFDYWGHGTQVTVSS

-- reply
["low polyreactivity", "low polyreactivity", "low polyreactivity", "low polyreactivity", "low polyreactivity", "low polyreactivity"]
